Please provide measured IC50 for the entries that follow.
studyTarget: EGFR exon 20 ASV Ins V769_D770 (Ba/F3 cells) (Homo sapiens, UniProt P00533, INS769ASV)
Construct: expressed in transfected cells; host or cells: Ba/F3 (murine pro-B cells), retroviral transduction, puromycin selection, IL3-independent pool
Sequence (P00533 with tags, fused parts or gaps INS769ASV): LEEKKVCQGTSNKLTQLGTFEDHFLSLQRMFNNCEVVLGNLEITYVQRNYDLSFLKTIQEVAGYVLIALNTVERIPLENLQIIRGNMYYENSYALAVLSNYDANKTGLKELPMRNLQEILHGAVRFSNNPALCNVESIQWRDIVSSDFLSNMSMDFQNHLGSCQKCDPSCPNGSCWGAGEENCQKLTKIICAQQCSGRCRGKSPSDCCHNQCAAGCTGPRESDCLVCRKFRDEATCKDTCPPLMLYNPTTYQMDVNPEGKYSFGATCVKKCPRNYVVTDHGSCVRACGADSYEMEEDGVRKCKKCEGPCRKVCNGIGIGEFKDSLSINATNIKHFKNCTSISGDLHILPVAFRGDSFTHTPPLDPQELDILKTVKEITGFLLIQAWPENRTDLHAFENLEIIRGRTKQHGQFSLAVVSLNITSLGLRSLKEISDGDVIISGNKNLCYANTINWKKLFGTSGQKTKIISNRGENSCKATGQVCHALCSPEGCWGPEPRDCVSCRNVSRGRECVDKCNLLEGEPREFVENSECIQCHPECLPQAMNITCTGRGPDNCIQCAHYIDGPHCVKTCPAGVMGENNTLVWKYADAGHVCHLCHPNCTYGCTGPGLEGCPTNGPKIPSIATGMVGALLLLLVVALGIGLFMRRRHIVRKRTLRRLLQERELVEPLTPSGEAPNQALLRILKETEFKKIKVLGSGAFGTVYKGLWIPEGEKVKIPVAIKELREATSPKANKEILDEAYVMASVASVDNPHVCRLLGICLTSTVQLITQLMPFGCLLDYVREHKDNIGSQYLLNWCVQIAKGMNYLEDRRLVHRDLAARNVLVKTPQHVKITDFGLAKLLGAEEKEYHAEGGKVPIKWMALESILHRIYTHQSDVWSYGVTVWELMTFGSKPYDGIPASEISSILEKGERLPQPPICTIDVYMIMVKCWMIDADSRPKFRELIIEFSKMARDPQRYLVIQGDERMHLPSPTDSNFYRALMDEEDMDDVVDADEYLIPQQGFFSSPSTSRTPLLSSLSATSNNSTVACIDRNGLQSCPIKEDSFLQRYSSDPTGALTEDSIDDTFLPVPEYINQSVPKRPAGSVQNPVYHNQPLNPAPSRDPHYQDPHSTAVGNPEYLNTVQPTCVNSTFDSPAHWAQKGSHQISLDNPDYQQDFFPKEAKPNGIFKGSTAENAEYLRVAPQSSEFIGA
assayComment: Inhibitor activity on EGFR-dependent cell growth (CellTiter-Glo, 72 h), Ba/F3 EGFR exon 20 ASV Ins
Assay type: cell-based
runParameters: read-out: BaF3 ASV IC50

{"compound": "COc1c(Cl)cccc1Nc1c(-c2ccnc(Nc3ccn(C)n3)n2)[nH]c2c1C(=O)NCC2 [compound 509]", "IC50": "< 100 nM"}

Hi there! I need IC50 for each item below, if you can.
1. COc1c(Cl)cccc1Nc1c(-c2ccnc(Nc3cnnn3C)n2)[nH]c2c1C(=O)NCC2 [compound 512]
2. COc1cc(Cl)cc(Nc2c(-c3ccnc(N)n3)[nH]c3c2C(=O)NCC3)c1 [compound 302]
3. COc1c(Cl)cccc1Nc1c(-c2ccncc2F)[nH]c2c1C(=O)NC[C@H]2CCN(C)C [compound 486]
4. COc1ccc2nccc(-c3[nH]c4c(c3Nc3cccc(Cl)c3OC)C(=O)NCC43CC3)c2n1 [compound 316]
5. COc1c(F)cccc1Nc1c(-c2ccncn2)[nH]c2c1C(=O)NCC2C[C@H]1COCCO1 (single isomer, unassigned) [Compound 572]
6. COc1c(F)cccc1Nc1c(-c2ccnc(C)n2)[nH]c2c(C[C@@H]3COCCO3)c[nH]c(=O)c12 [compound 658]

Result:
["< 100 nM", "> 1000 nM", "> 1000 nM", "< 100 nM", "100 to 1000 nM", "< 100 nM"]
